Test system: PC-3
Assay: Antiproliferative activity against human PC-3 cells assessed as inhibition of cell growth incubated for 48 hrs by XTT assay
Format: functional, cell-based
Details: PC-3, 48 h
Measured endpoint: IC50

Before answering, review these 3 worked examples.
>>> endpoint_value("COc1cc(-c2nnc(-c3c(C)[nH]c4c3Cc3ccccc3-4)[se]2)cc(OC)c1OC")
"> 10 µM"
>>> endpoint_value("Cc1[nH]c2c(c1-c1nnc(-c3ccccc3)o1)Cc1ccccc1-2")
"1.66 µM"
>>> endpoint_value("Cc1[nH]c2c(c1-c1nnc(-c3ccccc3)s1)Cc1ccccc1-2")
"0.38 µM"

## Input // returns reported IC50 for input Cc1[nH]c2c(c1-c1nnc(-c3ccc(Cl)cc3)s1)Cc1ccccc1-2
## Output > 10 µM

## Input // returns reported IC50 for input Cc1[nH]c2c(c1-c1nnc(-c3ccccc3)[se]1)Cc1ccccc1-2
## Output 0.072 µM

## Input // returns reported IC50 for input Cc1[nH]c2c(c1-c1nnc(-c3cccc(Cl)c3)s1)Cc1ccccc1-2
## Output > 10 µM

## Input // returns reported IC50 for input Cc1[nH]c2c(c1-c1nnc(-c3ccc(Cl)c(Cl)c3)s1)Cc1ccccc1-2
## Output > 10 µM
